# tested.on: T1, cynomolgus monkey CD47 on CHO-K1 cells (cynomolgus monkey, UniProt A0A5F8AK49 19-323 (rhesus entry))
# T1 construct: whole, on cells; also called CHO-K1/cyno CD47; CHO-K1/cynoCD47
# assay.method.text: flow cytometry on CHO-K1/cyno CD47 cells; unit taken from the axis
Below, each entry is listed alongside its reported pEC50.
Please report pEC50 as the negative decimal logarithm of the molar concentration, giving only the number.

108C10F5 (antibody, V domains shown, purified murine anti-CD47 hybridoma antibody; separate subclone with its own curves; same VH and VL as 108C10A6; also called 09-108C10F5) VH: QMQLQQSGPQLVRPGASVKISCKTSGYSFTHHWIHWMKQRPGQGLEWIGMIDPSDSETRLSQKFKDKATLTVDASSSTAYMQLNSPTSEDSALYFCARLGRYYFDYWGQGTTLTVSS VL: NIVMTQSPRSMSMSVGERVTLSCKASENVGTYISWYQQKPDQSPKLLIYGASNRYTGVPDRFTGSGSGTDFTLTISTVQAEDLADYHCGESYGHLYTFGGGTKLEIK    8.70

Turning to the following binder.
// query pEC50 value for entry 112E5F2 (antibody, V domains shown, purified murine anti-CD47 hybridoma antibody; same VH and VL as 112E5D9 and 112E5H7; also called 11-112E5F2) VH: QVQLQQSGPQLVRPGASVKISCKASGYSFTNNWMHWMKQRPGQGLEWIGMIDPSDSETRLNQQFRDKATLTVDKTSSTAYMQLSSPTSEDSAVYYCARLGRYYFDYWGLGTTLTVSS VL: NIVMTQSPKSMSVSVGERVTMNCRASEIVGTYVSWYQQKPEQSPKLLIYGAFNRYTGVPDRFTGSRSGTDFSLNISNVQAEDLADYLCGQSYDSPYTFGGGTKLEIK 8.74
